Data origin, for the record: PubChem BioAssay AID296

# System: MX-1 breast xenograft, nude mice, tumor weight T/C
# ASSAY: NCI In Vivo Anticancer Drug Screen. Data for tumor model Human Mammary Carcinoma MX-1 Xenograft (intrarenal inoculation) in NU/NU Swiss (nude) mice
# CONDITION: endpoint: mean tumor weight change; dose: 12.5 mg/kg/injection; schedule: Q04DX003 (sc); vehicle: saline; higher = larger tumour
Results filed as inconclusive are left out.
OBSERVATION_TYPE: T/C

>>> print(df.to_string())
                                   compound    recorded_value
0  OCCN1CCN(CC/C=C2/c3ccccc3Sc3ccc(Cl)cc32)CC1  115 % of control
1       ClCCCN1CCCCC1CCl (stereo not drawn)   51 % of control
2  OCC1OC(n2cnc3cncnc32)C(O)C1O (stereo not drawn)   90 % of control

* * *

Let's look at some compounds and their measured T/C.
# System: MX-1 breast xenograft, nude mice, tumor weight T/C
# ASSAY: NCI In Vivo Anticancer Drug Screen. Data for tumor model Human Mammary Carcinoma MX-1 Xenograft (intrarenal inoculation) in NU/NU Swiss (nude) mice
# CONDITION: endpoint: mean tumor weight change; dose: 300.0 mg/kg/injection; schedule: Q04DX003 (sc); vehicle: saline with Tween-80; higher = larger tumour
Results filed as inconclusive are left out.

COMPOUND	T/C
CN=C(N)N/N=C(\C)c1ccc2c(c1)Cc1ccccc1-2	115 % of control
CN1C(=O)C(=Cc2ccc(O)cc2)C(=O)N(C)C1=O	96 % of control
OCC1OC(n2cnc3cc(Cl)c(Cl)cc32)C(O)C1O (centres undefined)	156 % of control
CCCCCCCCCCCCCC#CC(=O)O	92 % of control
O=Cc1ccc(O)c(O)c1	181 % of control
Nc1nc(=O)n(C2OC(CO)C(O)C2O)cc1F (centres undefined)	103 % of control
C1=CCOCOC1	70 % of control
CC(=Nc1ccccc1)C1=C(O)C(Cc2ccccc2)NC1=O (centres undefined)	63 % of control
CS(=O)(=O)c1ncc(Br)cn1	119 % of control
CN(C)CCOc1ccc2c(c1)C/C(=C/c1ncc([N+](=O)[O-])n1C)C2=O	81 % of control
C=CCNc1nc2c(s1)CCc1cc(OC)c(OC)cc1-2	92 % of control
O=C(NC1CCCCC1)OCc1c(COC(=O)NC2CCCCC2)c(-c2ccc(Cl)c(Cl)c2)n2c1CCC2	114 % of control
O=c1cc(-c2ccccc2)[nH]c2c1CCCC2	54 % of control
CCN(CC)c1ccc2[nH]c3c(C(N)=O)cc(=O)c(=O)c=3oc2c1	84 % of control
O=C1[C@H]2CCC[C@H]2[C@H]2CCC[C@@H]12	112 % of control
CCOC(=O)c1[nH]c2cccc3c2c1CC(Br)C3=O (centres undefined)	86 % of control
CCCCCC#CC1OC12CCCCC2 (centres undefined)	83 % of control
COc1ccc(OC)c(/C=C/c2ccnc3ccccc23)c1	91 % of control
CCN(CC)CCC(=O)c1ccccc1	115 % of control
Cc1cc2nc3c(=O)[nH]c(=O)nc-3n(CC(O)C(O)C(O)C(O)CO)c2cc1C (centres undefined)	93 % of control
CN(C)C1C(=O)C(C(=O)NP(=O)(NCCCO)N(CCCl)CCCl)=C(O)C2(O)C(=O)C3=C(O)c4c(O)cccc4C(C)(O)C3CC12 (centres undefined)	-98 % of control
CC(=O)OCC1(C)NC(=O)c2ccccc2O1 (centres undefined)	108 % of control
CC[C@H](CC[C@@H](C)C1CC[C@H]2[C@@H]3CC=C4C[C@@H](OP(=O)(N5CC5)N5CC5)CC[C@]4(C)[C@H]3CC[C@]12C)C(C)C (some centres undefined)	71 % of control
CCOC(=O)C(C)(C)Oc1ccc(Cl)cc1	95 % of control
Nc1nc(N)c2cc(S(=O)(=O)c3ccccc3)ccc2n1	171 % of control
CN(C=O)C(C(=O)Nc1cccc2c(OC(=O)C(N(C)C=O)(N(C)C=O)N(C)C=O)c(N=Nc3ccc(S(=O)(=O)Nc4nccs4)cc3)cc(N=Nc3ccc(S(=O)(=O)Nc4nccs4)cc3)c12)(N(C)C=O)N(C)C=O (tested in a mixture with another compound)	108 % of control
CN=C(N)N/N=C(\C)c1ccc2oc3ccc(/C(C)=N/NC(N)=NC)cc3c2c1	80 % of control
COc1cccc(C2NC(=O)c3c(n[nH]c3N)S2)c1O (centres undefined)	62 % of control
c1cc(OCC2CO2)ccc1OCC1CO1 (centres undefined)	110 % of control
CC(=O)Nc1ccc(S(=O)(=O)CO)cc1	121 % of control
O=C(Nc1cccc2c(OC(=O)C(Cl)Cl)c(N=Nc3ccc(S(=O)(=O)Nc4nccs4)cc3)cc(N=Nc3ccc(S(=O)(=O)Nc4nccs4)cc3)c12)C(Cl)Cl (tested in a mixture with another compound)	111 % of control
NC(=S)N/N=C/c1ccc(OC(=O)COc2ccccc2)cn1	101 % of control
CCCN1COC(OCC)C(C)(C)C1 (centres undefined)	98 % of control
Nc1nc(N)c(N=O)c(Nc2ccc(Br)cc2)n1	42 % of control
